Assay: survival rescue of mitochondrial mutant cells in low glucose, primary screen, MELAS cybrids, Rieske KO mouse fibroblasts, CellTiter-Glo (AID 1508586);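 note: z relative to plate mean and SD of compound and empty wells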
Conditions: Rieske KO mouse fibroblast survival, CellTiter-Glo 72 h
Observation type: z-score
The answer should be written as a number, with no unit following it.

Item: CCCCCCCCCCCC[N+](C)(C)CCOc1ccccc1 | z-score: -0.197

Item: CC(C)(c1ccccc1)c1ccc(O)cc1 | z-score: -0.32

Item: Fc1ccc(C(OCCN2CCN(CCCc3ccccc3)CC2)c2ccc(F)cc2)cc1 | z-score: 0.399

Item: C[C@H](N)[C@H](O)c1ccccc1 | z-score: -1.57

Item: CCC1(CC)C(=O)C=CNC1=O | z-score: -1.05

Item: NCCc1ccc(S(=O)(=O)F)cc1 | z-score: -1.62

Item: CC(=O)OC1CN2CCC1CC2 (configuration not stated) | z-score: -1.86

---

Assay: Cy5 fluorescence quenching or enhancement artefacts, artefact control for HCV NS3 helicase inhibitor project, biochemical, LOPAC1280 (AID 687037)
Settings: Cy5-DNA-NS3h complex fluorescence interference counterscreen
Activity calls are given as the source filed them. How the calls were made is not given here.
Observation type: fluorescence ratio (interference)

Item: Cc1c(C(=O)c2cccc3ccccc23)c2cccc3c2n1[C@H](CN1CCOCC1)CO3 | fluorescence ratio (interference): 1 (inactive)

Item: Clc1cc(I)cc(Cl)c1NC1=NCCN1 | fluorescence ratio (interference): 0.9 (inactive)

Item: CCCN1CCC[C@@H]2Cc3nc(N)ncc3C[C@H]21 | fluorescence ratio (interference): 1 (inactive)

Item: CC(=O)c1c(O)c(C)c(O)c(Cc2c(O)c3c(c(C(=O)/C=C/c4ccccc4)c2O)OC(C)(C)C=C3)c1O | fluorescence ratio (interference): 0.9 (inactive)

Item: NC(N)=NOCC[C@H](N)C(=O)O | fluorescence ratio (interference): 1 (inactive)

Item: CN(N=O)c1cc(O)ccc1O | fluorescence ratio (interference): 1 (inactive)

Item: CC[C@@]1(O)C(=O)OCc2c1cc1n(c2=O)Cc2cc3ccccc3nc2-1 | fluorescence ratio (interference): 1 (inactive)

Item: CC(=O)[C@H]1CC[C@H]2[C@@H]3CC[C@H]4C[C@](C)(O)CC[C@]4(C)[C@H]3CC[C@]12C | fluorescence ratio (interference): 1 (inactive)

Item: CCCCCCCCCCCCCC(=O)O[C@@H]1[C@@H](C)[C@@]2(O)[C@@H](C=C(CO)C[C@@]3(O)C(=O)C(C)=C[C@@H]23)C2C(C)(C)[C@@]21OC(C)=O (stereo not given in full) | fluorescence ratio (interference): 1 (inactive)

Item: CCNC(=O)[C@H]1O[C@@H](n2cnc3c(N)ncnc32)C(O)[C@H]1O (stereo not given in full) | fluorescence ratio (interference): 1 (inactive)

---

Kindly state viability for each of the entries shown.
Assay: ovarian cancer cell viability with rucaparib, profiling panel, oncology-focused library, rucaparib conditional (AID 1508598)
Details: patient-derived ovarian cancer cells, CellTiter-Glo viability, 144 h; at 0.00122 µM; OCI-P5x cells; without rucaparib; stronger effect = lower value
Reply numerically in %, unit not repeated.

Item: C/C(=C\c1csc(C)n1)[C@H]1C[C@@H]2O[C@@H]2CCC[C@H](C)[C@H](O)[C@@H](C)C(=O)C(C)(C)[C@H](O)CC(=O)O1 | viability: 15.9

Item: Cn1cc(C2=C(c3cn(C4CCN(Cc5ccccn5)CC4)c4ccccc34)C(=O)NC2=O)c2ccccc21 | viability: 105

Item: C/C(=C\c1csc(C)n1)[C@H]1C[C@@H]2O[C@]2(C)CCC[C@H](C)[C@H](O)[C@@H](C)C(=O)C(C)(C)[C@H](O)CC(=O)O1 | viability: 17.2

Item: O=S(=O)(CC1CS1)c1ccc(Oc2ccccc2)cc1 (stereo not given) | viability: 92.4

Item: CC(C)[C@@]12O[C@@H]1[C@@H]1O[C@]13[C@]1(O[C@@H]1C[C@@H]1C4=C(CC[C@@]13C)C(=O)OC4)[C@@H]2O | viability: 7.08

---

Kindly state GLP1 secretion stimulation for each of the entries shown.
Test: glucagon-like peptide 1 release enhancers, primary assay, NCI-H716 cell line, NPC library (AID 1117341)
Details: NCI-H716 cells, at 10 µM, stronger effect = higher value
Reply numerically in %, unit not repeated.

Item: CC(C)(C)c1ccc(O)cc1 | GLP1 secretion stimulation: 3.8

Item: CC(C)=CC1C(C(=O)OCN2C(=O)C3=C(CCCC3)C2=O)C1(C)C (stereo unspecified) | GLP1 secretion stimulation: -0.5

Item: C[N+]1(CCF)[C@@H]2CC[C@H]1CC(OC(=O)C(O)(c1ccccc1)c1ccccc1)C2 (stereo partly specified) | GLP1 secretion stimulation: 4.4

Item: C[C@]12CC[C@H]3[C@@H](CCC4=CC(=O)CC[C@@]43C)[C@@H]1CC[C@@H]2C(=O)O | GLP1 secretion stimulation: -3.2

Item: COc1cccc(C(=O)CCN[C@@H](C)[C@H](O)c2ccccc2)c1 | GLP1 secretion stimulation: 0.7

Item: COc1ccc2c(C(=O)c3ccc(Cl)cc3)c(C)n(CC(=O)O)c2c1 | GLP1 secretion stimulation: -0.1

Item: CC1=C2[C@H]3OC(=O)[C@@H](C)[C@@H]3CC[C@@]2(C)C=CC1=O | GLP1 secretion stimulation: -0.6

Item: c1ccc2nc(N3CCNCC3)ccc2c1 | GLP1 secretion stimulation: 3.6

Item: CC[N+]1(CC)CCC(OC(=O)C(O)(c2ccccc2)c2ccccc2)C1 (stereo unspecified) | GLP1 secretion stimulation: 2.4

Item: C1CCC(NC2CCCCC2)CC1 | GLP1 secretion stimulation: 0.1

Item: C1CN(P2(N3CC3)=NP(N3CC3)(N3CC3)=NP(N3CC3)(N3CC3)=N2)CCO1 (stereo unspecified) | GLP1 secretion stimulation: -5.1

---

Tested on: Aerobactin synthetase IucA (Klebsiella pneumoniae, hypervirulent)
Assay: IucA enzyme inhibition, biochemical, LOPAC library, absorbance readout (AID 1346212);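 note: 100% = no compound wells and 0% = no enzyme wells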
Details: IucA enzyme assay, absorbance (OD) readout; stronger effect = lower value; concentration not given here
Kindly state remaining activity for each of the entries shown.
Reply numerically in %, unit not repeated.

Item: c1ccc(C2CC2)c(OCC2=NCCN2)c1 | remaining activity: 98

Item: CCCn1c(=O)c2c(ncn2C)n(CCC)c1=O | remaining activity: 110

Item: NC(N)=NCCC[C@H](N)C(=O)O | remaining activity: 111

Item: N#C/C(=C\c1ccc(O)c(O)c1)C(=O)N1CCc2ccccc21 | remaining activity: 107

Item: N[C@@H](Cc1ccc(O)c(I)c1)C(=O)O | remaining activity: 121

Item: CC(C)(C)NCC(O)COc1nsnc1N1CCOCC1 (configuration not stated) | remaining activity: 109

Item: CCCn1c(=O)c2[nH]c(C3CCCC3)nc2n(CCCOC(=O)c2ccc(S(=O)(=O)F)cc2)c1=O | remaining activity: 102

Item: CCCN1CCC[C@@H]2Cc3nc(N)ncc3C[C@H]21 | remaining activity: 118

Item: CN(C)CCCC1(c2ccc(F)cc2)OCc2cc(C#N)ccc21 (configuration not stated) | remaining activity: 124

Item: O=C(CCCN1CC=C(n2c(=O)[nH]c3ccccc32)CC1)c1ccc(F)cc1 | remaining activity: 98.7

Item: CCCN(CCC)C(=O)Cc1c(-c2ccc(Cl)cc2)nc2c(Cl)cc(Cl)cn12 | remaining activity: 120

Item: NS(=O)(=O)C#Cc1ccccc1 | remaining activity: 118

---

Experiment: growth inhibition of GSK3B-pretreated HCT116 cells – cell-based, CellTiter-Glo, 0.2 to 20 µM (AID 1117336)
Details: HCT116 viability after GSK3B inhibitor, at 20 µM
Active and inactive are the calls of the source.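 Rule for the calls: active = compounds lowering colon cancer cell viability after pretreatment blocking the GSK3B kinase; inactive = the rest.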
Entry note: the call must match one of active, inactive

## Input Per the records of this test, what outcome belongs to COC1CC(=C(c2cccs2)c2cccs2)C[N+](C)(C)C1 (stereo not drawn) ?
## Output inactive

## Input Per the records of this test, what outcome belongs to CC(C)=CC1C(C(=O)OCc2cccc(Oc3ccccc3)c2)C1(C)C (stereo not drawn) ?
## Output inactive

## Input Per the records of this test, what outcome belongs to NCc1cccnc1 ?
## Output inactive

## Input Per the records of this test, what outcome belongs to CCCCC/C=C\C/C=C\C/C=C\C/C=C\CCCC(=O)NCC(=O)O ?
## Output active

## Input Per the records of this test, what outcome belongs to O=C(N[C@H]1N=C(c2ccccc2F)c2cccc3c2N(CC3)C1=O)c1cc2ccccc2[nH]1 ?
## Output inactive

## Input Per the records of this test, what outcome belongs to Clc1cccc(SC2CCNCC2)n1 ?
## Output inactive

## Input Per the records of this test, what outcome belongs to O=C1NCN(c2ccccc2)C12CCN(CC1COc3ccccc3O1)CC2 (stereo not drawn) ?
## Output inactive

## Input Per the records of this test, what outcome belongs to CC[N+]1(CC)CCC(OC(=O)C(O)(c2ccccc2)c2ccccc2)C1 (stereo not drawn) ?
## Output inactive

## Input Per the records of this test, what outcome belongs to COc1c2c(cc3c1OCO3)CCN(C)C2 ?
## Output inactive

## Input Per the records of this test, what outcome belongs to CN[C@@H](C)[C@H](O)c1ccccc1 ?
## Output inactive

## Input Per the records of this test, what outcome belongs to CCC1(c2cccc(O)c2)CCCCN(C)C1 (stereo not drawn) ?
## Output inactive

## Input Per the records of this test, what outcome belongs to CC(C)N(CCC(C(N)=O)(c1ccccc1)c1ccccn1)C(C)C (stereo not drawn) ?
## Output inactive

## Input Per the records of this test, what outcome belongs to CC1=C(C(=O)O)N2C(=O)[C@@H](N)[C@H]2SC1 ?
## Output inactive

## Input Per the records of this test, what outcome belongs to COc1cc(N)c(Cl)cc1C(=O)NC1CN2CCC1CC2 (stereo not drawn) ?
## Output inactive

## Input Per the records of this test, what outcome belongs to C1CN(P2(N3CC3)=NP(N3CC3)(N3CC3)=NP(N3CC3)(N3CC3)=N2)CCO1 (stereo not drawn) ?
## Output inactive

## Input Per the records of this test, what outcome belongs to CCC1(c2ccc(N)cc2)CCC(=O)NC1=O (stereo not drawn) ?
## Output inactive

## Input Per the records of this test, what outcome belongs to O=[N+]([O-])O[C@H]1CO[C@H]2[C@@H]1OC[C@H]2O[N+](=O)[O-] ?
## Output inactive

## Input Per the records of this test, what outcome belongs to Cc1cccc(Cc2cnc[nH]2)c1C ?
## Output inactive

## Input Per the records of this test, what outcome belongs to Cc1ccc(N=CN(C)C=Nc2ccc(C)cc2C)c(C)c1 ?
## Output inactive

## Input Per the records of this test, what outcome belongs to C[C@H]1O[C@@H](O[C@H]2[C@@H](O)C[C@H](O[C@H]3[C@@H](O)C[C@H](O[C@H]4CC[C@@]5(C)[C@H](CC[C@@H]6[C@@H]5CC[C@]5(C)[C@@H](C7=CC(=O)OC7)CC[C@]65O)C4)O[C@@H]3C)O[C@@H]2C)C[C@H](O)[C@@H]1O ?
## Output active

## Input Per the records of this test, what outcome belongs to CC(Cc1ccccc1)NC=O (stereo not drawn) ?
## Output inactive

## Input Per the records of this test, what outcome belongs to N[C@@H](Cc1ccc(Oc2cc(I)c(O)c(I)c2)c(I)c1)C(=O)O ?
## Output inactive

## Input Per the records of this test, what outcome belongs to NCCc1cc(O)c(O)cc1O ?
## Output inactive
